TESTED_ON: Histamine H3 receptor (Homo sapiens)
Sequence (Q9Y5N1 whole entry): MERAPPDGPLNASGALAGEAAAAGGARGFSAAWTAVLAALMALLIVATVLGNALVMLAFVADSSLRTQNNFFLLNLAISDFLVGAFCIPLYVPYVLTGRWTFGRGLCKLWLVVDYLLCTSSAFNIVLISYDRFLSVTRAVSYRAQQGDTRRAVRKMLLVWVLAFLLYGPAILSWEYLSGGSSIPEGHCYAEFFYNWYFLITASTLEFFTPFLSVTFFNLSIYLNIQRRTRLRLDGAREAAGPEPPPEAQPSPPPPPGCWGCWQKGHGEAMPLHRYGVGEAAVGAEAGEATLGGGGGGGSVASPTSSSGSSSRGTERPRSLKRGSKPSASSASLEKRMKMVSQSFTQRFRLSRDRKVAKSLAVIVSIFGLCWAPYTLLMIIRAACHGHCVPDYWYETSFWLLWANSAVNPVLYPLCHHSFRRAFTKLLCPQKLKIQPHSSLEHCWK
MEASUREMENT_DESCRIPTION: Displacement of [3H]-Nalpha-methylhistamine from human recombinant histamine H3 receptor expressed in HEK293 cells after 90 mins
pKi: −log10 of the molar value.
Recorded pKi values for a group of compounds are listed next.
VALUE_KIND: pKi

* CC1CCN(CCCCCCCOc2ccc(Cl)cc2)CC1.O=C(O)C(=O)O | 6.33
* CC1CCCN(CCCCCCOc2cccc(Cl)c2)C1.O=C(O)C(=O)O (stereo not given) | 6.76
* CC1CCCN(CCCCCCCOc2cccc(Cl)c2)C1.O=C(O)C(=O)O (stereo not given) | 6.33
* Clc1ccc(OCCCCCN2CCCCC2)cc1.O=C(O)C(=O)O | 6.37
* Clc1ccc(OCCCCCCN2CCCCC2)cc1.O=C(O)C(=O)O | 6.58
* Clc1ccc(OCCCCCCCN2CCCCC2)cc1.O=C(O)C(=O)O | 6.89
* Clc1ccc(OCCCCCN2CCCCCC2)cc1.O=C(O)C(=O)O | 6.43
* CC1CCN(CCCCCOc2ccc(Cl)cc2)CC1.O=C(O)C(=O)O | 6.10
* Clc1ccc(OCCCCCCN2CCCCCC2)cc1.O=C(O)C(=O)O | 6.63
* CC1CCN(CCCCCCOc2ccc(Cl)cc2)CC1.O=C(O)C(=O)O | 6.72
* Clc1cccc(OCCCCCCN2CCCCCC2)c1.O=C(O)C(=O)O | 6.53
* CC1CCCN(CCCCCOc2ccc(Cl)cc2)C1.O=C(O)C(=O)O (stereo not given) | 6.88
* Clc1cccc(OCCCCCCCN2CCCCC2)c1.O=C(O)C(=O)O | 6.48
* CC1CCN(CCCCCCOc2cccc(Cl)c2)CC1.O=C(O)C(=O)O | 6.39
* Clc1cccc(OCCCCCCN2CCCCC2)c1.O=C(O)C(=O)O | 6.59
* CC1CCN(CCCCCCCOc2cccc(Cl)c2)CC1.O=C(O)C(=O)O | 6.09
* Clc1ccc(OCCCCCCCN2CCCCCC2)cc1.O=C(O)C(=O)O | 6.69
* CC1CCCN(CCCCCCCOc2ccc(Cl)cc2)C1.O=C(O)C(=O)O (stereo not given) | 6.74
* CC1CCCN(CCCCCCOc2ccc(Cl)cc2)C1.O=C(O)C(=O)O (stereo not given) | 6.69

---

System: Mus musculus
MEASUREMENT_DESCRIPTION: Anticonvulsant activity in CF1 albino mouse assessed as protection against maximal electroshock-induced seizure at 30 mg/kg, ip after 4 hrs
Type: functional, organism-based
The source made the active and inactive calls. No cut-off for these calls is given here.
Possible outcomes: active, inactive

* Clc1cccc(OCCCCCCN2CCCCC2)c1.O=C(O)C(=O)O | inactive
* CC1CCN(CCCCCCOc2ccc(Cl)cc2)CC1.O=C(O)C(=O)O | active
* CC1CCN(CCCCCCCOc2ccc(Cl)cc2)CC1.O=C(O)C(=O)O | inactive
* CC1CCCN(CCCCCCCOc2ccc(Cl)cc2)C1.O=C(O)C(=O)O (centres undefined) | active
* CC1CCCN(CCCCCOc2ccc(Cl)cc2)C1.O=C(O)C(=O)O (centres undefined) | inactive
* Clc1cccc(OCCCCCCN2CCCCCC2)c1.O=C(O)C(=O)O | inactive
* Clc1ccc(OCCCCCCCN2CCCCC2)cc1.O=C(O)C(=O)O | inactive
* CC1CCN(CCCCCCOc2cccc(Cl)c2)CC1.O=C(O)C(=O)O | inactive
* Clc1cccc(OCCCCCCCN2CCCCCC2)c1.O=C(O)C(=O)O | inactive

The measurements presented in this section are drawn from ChEMBL document CHEMBL3745596.
